// reported IC50 in IL-17RA/IL7RC dimerization assay for each item listed
measurement target: IL-17A (agonist in the IL-17RA/IL17RC dimerization assay) (UniProt Q16552 24-155)
Sequence (Q16552 24-155 limits assumed): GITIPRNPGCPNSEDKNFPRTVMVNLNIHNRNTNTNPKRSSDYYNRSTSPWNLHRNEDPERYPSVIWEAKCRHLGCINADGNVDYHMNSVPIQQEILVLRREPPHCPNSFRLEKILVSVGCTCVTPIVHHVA
method description: cell-based or functional assay

- binder: "Ac-IHVTINADLWDWINK-NH2 [peptide of SEQ ID NO: 191]"
  IC50 in IL-17RA/IL7RC dimerization assay: "< 10000 nM"

Reported IC50 in IL-17RA/IL7RC dimerization assay for Ac-VHVTIPQDFWEWFRR-NH2 [peptide of SEQ ID NO: 145] was < 500 nM

Reported IC50 in IL-17RA/IL7RC dimerization assay for Ac-VHFTIPQDWWEWVRR-NH2 [peptide of SEQ ID NO: 146] was < 500 nM

Reported IC50 in IL-17RA/IL7RC dimerization assay for Ac-VHFTFPQDLWNWVRR-NH2 [peptide of SEQ ID NO: 127] was < 500 nM

Reported IC50 in IL-17RA/IL7RC dimerization assay for Ac-VHVTIPADFWEWVRR-NH2 [peptide of SEQ ID NO: 117] was < 500 nM

Reported IC50 in IL-17RA/IL7RC dimerization assay for Ac-IHVTIPGEIFEWLQH-NH2 [peptide of SEQ ID NO: 250] was < 10000 nM

Reported IC50 in IL-17RA/IL7RC dimerization assay for Ac-VKISVPADLWDWINK-NH2 [peptide of SEQ ID NO: 239] was < 10000 nM
